System: Human osteosarcoma U20S cells
Assay: Assay to measure lysosome and autolysosome formation (acidic vesicle formation, LysoView/LysoTracker staining)
Assay type: cell-based
Conditions: Homo sapiens; U2OS cells, concentration of 0.8 μM; read-out: Activity (percentage increase in acidic vesicle formation over the DMSO-treated control), Table 2
activation at 0.8 µM values for the compounds below.
ASSAY ENDPOINT: activation at 0.8 µM

• CCCN(C(=O)c1csc(-c2cnn(-c3cccc(C)c3)c2)n1)[C@H]1CCNC1 = 10 to 30%
• CCCN(C(=O)c1csc(-c2cnn(-c3cccc(F)c3)c2)n1)[C@H]1CCNC1 = 10 to 30%
• O=C(c1csc(-c2cnn(-c3ccccc3)c2)n1)N1CCNCC1 = 10 to 30%
• CCCN(C(=O)c1ccc(-c2cnn(-c3ccccc3)c2)[nH]1)[C@H]1CCNC1 = > 100%
• CC1CCCN(C(=O)c2csc(-c3cnn(-c4ccccc4)c3)n2)C1CN (centres unmarked) = 10 to 30%
• O=C(NC[C@@H]1CNCCO1)c1csc(-c2cnn(-c3ccccc3)c2)n1 = 10 to 30%
• CC(C)N(C(=O)c1csc(-c2cnn(-c3ccccc3F)c2)n1)C1CCNCC1 = 50 to 100%
• CCCN(C(=O)c1cc(-c2cnn(-c3ccccc3)c2)cs1)C1CCNC1 (centres unmarked) = 50 to 100%
